meta.source: the supplement of paper PMC10065799

test system: AncSZ; assay: phosphorylation enrichment, bacterial display (enrichment ratio); higher = better substrate or ligand; peptides without Tyr show the background;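 further: 11-residue human phosphosite peptides and single-mutation variants displayed on the E. coli surface, counted by deep sequencing, each peptide's frequency after selection divided by its frequency in the unselected input library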;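 further: frequency after pTyr selection over input frequency; kinase dosed for 20-30% of maximal phosphorylation in three min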
Kind request: treat 1 as inclusive, so phosphorylation enrichment at 1 or higher is condition met, anything lower is condition not met.

Worked examples, 6 sequences total:
Residue String	Qualitative Label
ALLTKYSHSSM [DSCC1_Y374]	condition not met
SVVAPYEPPEV [TP53_Y220_V218A]	condition met
ISRLKYPVSQQ [BTK_Y375]	condition not met
GMEIVYVFVKK [DNAI2_Y5_YF]	condition met
SDMGQYQCLVF [AXL_Y115_T112M]	condition met
FEEDPYLVVNP [MCM6_Y810_YF]	condition met

Below: the item to evaluate.
stdin: Check the entry DKMEAYNINET [TEKT4_Y210_D213N] : does phosphorylation enrichment equal or exceed 1?
stdout: condition met
